Reference source for all entries: patent US11453683B1

- Study Target: KRas G12D (Homo sapiens (Human), UniProt P01116, G12D)
- Sequence (P01116 other isoform, or with tags, fused parts or gaps G12D): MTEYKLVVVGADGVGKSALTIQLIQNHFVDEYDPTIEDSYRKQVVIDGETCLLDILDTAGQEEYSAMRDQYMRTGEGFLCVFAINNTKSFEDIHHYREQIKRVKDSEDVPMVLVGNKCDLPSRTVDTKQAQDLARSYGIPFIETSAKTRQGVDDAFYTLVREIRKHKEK
- Procedure Details: KRas G12D Binding Assay (TR-FRET displacement)
- Settings: TR-FRET displacement of Cy5 labelled tracer, GDP-loaded KRAS G12D, 60 minute incubation at 22° C.
Please respond with reported IC50 for every item in the list.

Output IC50 of C#Cc1c(F)ccc2cc(O)cc(-c3ncc4c(N5CC6CCC(C5)N6)nc(OC[C@]56CCCN5[C@@H](COC(=O)N(C)C)CC6)nc4c3F)c12 [Example 440]
0.8 nM

Output IC50 of COc1ccc(OC(F)(F)F)c(-c2ncc3c(N4CC5CCC(C4)N5)nc(OC[C@@]45CCCN4C[C@H](F)C5)nc3c2F)c1 (racemic) [Example 361]
2700 nM

Output IC50 of Oc1cc(-c2ncc3c(N4CC5CCC(C4)N5)nc(OC[C@@]45CCCN4C[C@H](F)C5)nc3c2F)c2c(F)cccc2c1 (racemic) [Example 366]
0.5 nM

###

- Tested on: KRas G12D-mediated phosphorylation of ERK
- Procedure Details: Inhibition of KRas G12D-mediated phosphorylation of ERK in AGS cells
- Type: cell-based
- Settings: Homo sapiens; AGS cells expressing G12D, 3 hours, phospho-ERK normalized to GAPDH
Counter-ions that a name gives are not always drawn.
Please respond with reported IC50 for every item in the list.
Just the number in µM, nothing appended.

Recall the reported IC50 of CN1CCC[C@H]1COc1nc(N2C[C@H]3CC[C@@H](C2)N3)c2cnc(-c3cc(O)c(Br)c4ccccc34)c(F)c2n1 [Example 14] on KRas G12D-mediated phosphorylation of ERK and write it down.
4.84

Recall the reported IC50 of CC1CCc2cccc(-c3ncc4c(N5CC6CCC(C5)N6)nc(OC[C@@]56CCCN5C[C@H](F)C6)nc4c3F)c21 (stereo partly shown) [Example 429] on KRas G12D-mediated phosphorylation of ERK and write it down.
1.7

Recall the reported IC50 of Fc1c(-c2cccc3c2CC2CC32)ncc2c(N3CC4CCC(C3)N4)nc(OC[C@@]34CCCN3C[C@H](F)C4)nc12 (stereo partly shown) [Example 438] on KRas G12D-mediated phosphorylation of ERK and write it down.
1.63

Recall the reported IC50 of Oc1cc(-c2ncc3c(N4C[C@H]5CC[C@@H](C4)N5)nc(N4CC5(CCOC5)C4)nc3c2F)c2ccccc2c1 [Example 76] on KRas G12D-mediated phosphorylation of ERK and write it down.
7.41

Recall the reported IC50 of Cn1ccnc1CCOc1nc(N2C[C@H]3C[C@@H](O)[C@@H](C2)N3)c2cnc(-c3cccc4cccc(Cl)c34)c(F)c2n1 [Example 173] on KRas G12D-mediated phosphorylation of ERK and write it down.
10.5

Recall the reported IC50 of OCC1CCC2(COc3nc(N4C[C@H]5CC[C@@H](C4)N5)c4cnc(-c5cccc6cccc(Cl)c56)c(F)c4n3)CCCN12 (stereo partly shown) [Example 135] on KRas G12D-mediated phosphorylation of ERK and write it down.
4.82

Recall the reported IC50 of CN1CCC[C@H]1COc1nc(N2CC3CCC(C)(C2)N3)c2cnc(-c3cc(O)cc4ccccc34)c(F)c2n1 (stereo partly shown) [Example 156, bis(2,2,2-trifluoroacetate)] on KRas G12D-mediated phosphorylation of ERK and write it down.
1.79

Recall the reported IC50 of CC1(C)CN2CCCC2(COc2nc(N3CC4CCC(C3)N4)c3cnc(-c4cccc5cccc(Cl)c45)c(F)c3n2)C1 (stereo not shown) [Example 228] on KRas G12D-mediated phosphorylation of ERK and write it down.
13.7

Recall the reported IC50 of Fc1c(-c2cccc3cccc(Cl)c23)ncc2c(N3C[C@H]4CC[C@@H](C3)N4)nc(OCC34CCCN3CCC4)nc12 [Example 45] on KRas G12D-mediated phosphorylation of ERK and write it down.
0.84

Recall the reported IC50 of CO[C@H]1CN2CCC[C@]2(COc2nc(N3CC4CCC(C3)N4)c3cnc(-c4cccc5cccc(Cl)c45)c(F)c3n2)C1 [Example 225] on KRas G12D-mediated phosphorylation of ERK and write it down.
3.06

Recall the reported IC50 of CCc1ccc(O)cc1-c1ncc2c(N3C[C@H]4CC[C@@H](C3)N4)nc(OCC34CCCN3CCC4)nc2c1F [Example 263] on KRas G12D-mediated phosphorylation of ERK and write it down.
7.64

Recall the reported IC50 of Fc1c(-c2cccc3cccc(Cl)c23)ncc2c(N3CC4CC(F)C(C3)N4)nc(OC[C@@]34CCCN3C[C@H](F)C4)nc12 (stereo partly shown) [Example 396] on KRas G12D-mediated phosphorylation of ERK and write it down.
8.17

Recall the reported IC50 of Fc1ccc2cccc(-c3ncc4c(N5CC6CCC(C5)N6)nc(OC[C@@]56CCCN5C[C@H](F)C6)nc4c3F)c2c1Cl (racemic) [Example 336] on KRas G12D-mediated phosphorylation of ERK and write it down.
1.06

Recall the reported IC50 of CO[C@@H]1CN2CCC[C@]2(COc2nc(N3C[C@H]4CC[C@@H](C3)N4)c3cnc(-c4cccc5cccc(Cl)c45)c(F)c3n2)C1 [Example 219, bis-hydrochloride] on KRas G12D-mediated phosphorylation of ERK and write it down.
2.03

Recall the reported IC50 of Cc1cccc(-c2ncc3c(N4C[C@H]5CC[C@@H](C4)N5)nc(OCC45CCCN4CCC5)nc3c2F)c1Cl [Example 276] on KRas G12D-mediated phosphorylation of ERK and write it down.
3.79

Recall the reported IC50 of COC(=O)NC[C@H]1CC[C@@]2(COc3nc(N4CC5CCC(C4)N5)c4cnc(-c5cccc6cccc(Cl)c56)c(F)c4n3)CCCN12 [Example 411] on KRas G12D-mediated phosphorylation of ERK and write it down.
0.745

Recall the reported IC50 of CO[C@@H]1C[C@@H](COc2nc(N3C[C@H]4CC[C@@H](C3)N4)c3cnc(-c4cccc5cccc(Cl)c45)c(F)c3n2)N(C)C1 [Example 34] on KRas G12D-mediated phosphorylation of ERK and write it down.
4.21

Recall the reported IC50 of CCO[C@@H]1C[C@@H](COc2nc(N3C[C@H]4CC[C@@H](C3)N4)c3cnc(-c4cccc5cccc(Cl)c45)c(F)c3n2)N(C)C1 [Example 43] on KRas G12D-mediated phosphorylation of ERK and write it down.
6.2

Recall the reported IC50 of CC(C)(C)c1ccccc1-c1ncc2c(N3CC4CCC(C3)N4)nc(OC[C@@]34CCCN3C[C@H](F)C4)nc2c1F (racemic) [Example 362] on KRas G12D-mediated phosphorylation of ERK and write it down.
10.5

###

- Test system: KRas G12D-mediated phosphorylation of ERK
- Procedure Details: Inhibition of KRas G12D-mediated phosphorylation of ERK in AGS cells
- Assay type: cell-based
- Settings: Homo sapiens; AGS cells expressing G12D, 3 hours, phospho-ERK normalized to GAPDH
Structures can show the parent of a compound that is named as a salt.
Please respond with reported pIC50 for every item in the list.
Lab note: report pIC50 as minus log10 of the concentration in molar units, number only.

Output pIC50 of Fc1c(-c2cccc3cccc(Cl)c23)ncc2c(N3CC4CCC(C3)N4)nc(OC[C@]34CCCN3C[C@H](c3ccccc3)C4)nc12 (stereo in doubt) [Example 221, bis-hydrochloride salt]
4.80

Output pIC50 of Oc1cc(-c2ncc3c(N4C[C@H]5CC[C@@H](C4)N5)nc(OCCc4cccnc4)nc3c2F)c2ccccc2c1 [Example 106]
5.51

Output pIC50 of Fc1cccc(-c2ncc3c(N4C[C@H]5CC[C@@H](C4)N5)nc(OCC45CCCN4CCC5)nc3c2F)c1OC(F)F [Example 302]
5.70

Output pIC50 of Cc1cccc(CCOc2nc(N3C[C@H]4CC[C@@H](C3)N4)c3cnc(-c4cc(O)cc5ccccc45)c(F)c3n2)n1 [Example 87]
4.98

Output pIC50 of CC1CCCc2cccc(-c3ncc4c(N5CC6CCC(C5)N6)nc(OC[C@@H]5CCCN5C)nc4c3F)c21 (stereo partly shown) [Example 133]
5.69

Output pIC50 of Oc1cc(-c2ncc3c(N4C[C@H]5CC[C@@H](C4)N5)nc(OCC45CCCN4C(CF)CC5)nc3c2F)c2c(Cl)cccc2c1 (stereo partly shown) [Example 400]
6.58

Output pIC50 of Cc1cc2[nH]ncc2c(-c2ncc3c(N4C[C@H]5CC[C@@H](C4)N5)nc(OCC45CCCN4CCC5)nc3c2F)c1C [Example 249]
5.11

Output pIC50 of CCc1c(F)ccc2cccc(-c3ncc4c(N5CC6CCC(C5)N6)nc(OC[C@@]56CCCN5C[C@H](F)C6)nc4c3F)c12 (stereo in doubt) [Example 381]
6.15

Output pIC50 of CN1CCC[C@H]1COc1nc(N2C[C@H]3CC[C@@H](C2)N3)c2cnc(-c3cccc4ccc(F)c(Cl)c34)c(F)c2n1 [Example 44]
5.64

Output pIC50 of Fc1c(-c2cccc3cccc(Cl)c23)ncc2c(N3C[C@H]4CC[C@@H](C3)N4)nc(OC[C@]34CCCN3[C@@H](Cn3cccn3)CC4)nc12 [Example 418, bis(2,2,2-trifluoroacetate)]
5.56

Output pIC50 of CC(C)c1c(Cl)cccc1-c1ncc2c(N3C[C@H]4CC[C@@H](C3)N4)nc(OCC34CCCN3CCC4)nc2c1F [Example 298]
5.91

Output pIC50 of OC[C@@H]1CCN1c1nc(N2C[C@H]3CC[C@@H](C2)N3)c2cnc(-c3cc(O)cc4ccccc34)c(F)c2n1 [Example 121, 2,2,2-trifluoroacetate]
5.39

Output pIC50 of Cn1c(CCOc2nc(N3C[C@H]4CC[C@@H](C3)N4)c3cnc(-c4cc(O)cc5ccccc45)c(F)c3n2)nc2ccccc21 [Example 30]
5.02

Output pIC50 of CC(C)c1ccc(O)cc1-c1ncc2c(N3C[C@H]4CC[C@@H](C3)N4)nc(OCC34CCCN3CCC4)nc2c1F [Example 403]
5.54

Output pIC50 of CN(C)c1ccccc1-c1ncc2c(N3C[C@H]4CC[C@@H](C3)N4)nc(OCC34CCCN3CCC4)nc2c1F [Example 296]
5.07

Output pIC50 of O=C(OC[C@H]1CC[C@@]2(COc3nc(N4CC5CCC(C4)N5)c4cnc(-c5cccc6cccc(Cl)c56)c(F)c4n3)CCCN12)N1CCOCC1 [Example 445]
6.89

Output pIC50 of CN1C[C@H](C(F)(F)F)C[C@H]1COc1nc(N2C[C@H]3CC[C@@H](C2)N3)c2cnc(-c3cc(O)cc4ccccc34)c(F)c2n1 [Example 28]
4.93

Output pIC50 of Oc1cc(-c2ncc3c(N4C[C@H]5CC[C@@H](C4)N5)nc(OCCc4ccc(F)cn4)nc3c2F)c2ccccc2c1 [Example 102]
5.10

Output pIC50 of C[C@H]1C[C@H]1c1ccccc1-c1ncc2c(N3C[C@H]4CC[C@@H](C3)N4)nc(OCC34CCCN3CCC4)nc2c1F [Example 287]
5.09

Output pIC50 of Oc1cc(-c2ncc3c(N4C[C@H]5CC[C@@H](C4)N5)nc(OCC4(C(F)(F)F)CC4)nc3c2F)c2ccccc2c1 [Example 51]
4.92
